Experiment: Clearance in rat at 1 mg/kg, iv
Assay type: ADME, organism-based
Parameters: dose 1 mg/kg, route intravenous
Conditions: in vivo

smiles_code: CCOc1ncc(S(=O)(=O)N2CCN(CC)CC2)cc1-c1nc2c(CC)n(CCOC)nc2c(=O)[nH]1
clearance / mL/min/kg: 26.6

---

Test: Tmax in human at 1.43 mg/kg, po
Assay type: ADME, organism-based
Design: dose 1.43 mg/kg, route oral
Settings: in vivo
experimental_readout: Tmax (h)

smiles_code: CCOc1ncc(S(=O)(=O)N2CCN(CC)CC2)cc1-c1nc2c(CC)n(CCOC)nc2c(=O)[nH]1
unit_annotation: h
measured_number: 1

---

Papp A→B at 25 µM overview
Test: Apparent permeability from apical to basolateral side of human Caco2 cells at 25 uM
Type: ADME, cell-based
Conditions: Caco-2
experimental_readout: Papp A→B at 25 µM (×10⁻⁶ cm/s)

molecule: CCCCOc1ncc(S(=O)(=O)N2CCN(CC)CC2)cc1-c1nc2c(CC)n(CCN(C)C)nc2c(=O)[nH]1
measured_number: 2.8
//
molecule: CCOc1ncc(S(=O)(=O)N2CCN(CC)CC2)cc1-c1nc2c(CC)n(CCN3CCOCC3)nc2c(=O)[nH]1
measured_number: 2.5
//
molecule: CCc1c2nc(-c3cc(S(=O)(=O)N4CCN(CC)CC4)cnc3OCC(C)C)[nH]c(=O)c2nn1CCOC
measured_number: 40
//
molecule: CCOc1ncc(S(=O)(=O)N2CCN(CC)CC2)cc1-c1nc2c(CC)n(CCOC)nc2c(=O)[nH]1
measured_number: 16
//
molecule: CCc1c2nc(-c3cc(S(=O)(=O)N4CCN(CC)CC4)cnc3OCCOC)[nH]c(=O)c2nn1CCN1CCOCC1
measured_number: 2.8
//
molecule: CCc1c2nc(-c3cc(S(=O)(=O)N4CCN(C)CC4)cnc3OCCOC)[nH]c(=O)c2nn1CC(C)C
measured_number: 19
//
molecule: CCN1CCN(S(=O)(=O)c2cnc(OCCOC)c(-c3nc4c5n(nc4c(=O)[nH]3)CCCC5C)c2)CC1 (single isomer, unassigned; (-))
measured_number: 24
//
molecule: CCc1c2nc(-c3cc(S(=O)(=O)N4CCN(CC)CC4)cnc3OCCOC)[nH]c(=O)c2nn1CC(C)C
measured_number: 24
//
molecule: CCc1c2nc(-c3cc(S(=O)(=O)N4CCN(CC)CC4)cnc3OCCOC)[nH]c(=O)c2nn1CCOC
measured_number: 9
//
molecule: CCCCOc1ncc(S(=O)(=O)N2CCN(CC)CC2)cc1-c1nc2c(CC)n(C3CN(C)C3)nc2c(=O)[nH]1
measured_number: 6

---

Organism: Homo sapiens
Assay: Selectivity ratio of IC50 for PDE6 to IC50 for human PDE5

compound: CCN1CCN(S(=O)(=O)c2cnc(OCCOC)c(-c3nc4c5n(nc4c(=O)[nH]3)CCCC5)c2)CC1
Ratio IC50: 392
//
compound: CCOc1ncc(S(=O)(=O)N2CCN(CC)CC2)cc1-c1nc2c3n(nc2c(=O)[nH]1)CCCC3
Ratio IC50: 70
//
compound: CCCCOc1ncc(S(=O)(=O)N2CCN(CC)CC2)cc1-c1nc2c(CC)n(C3CN(C)C3)nc2c(=O)[nH]1
Ratio IC50: 209
//
compound: CCOc1ncc(S(=O)(=O)N2CCN(CC)CC2)cc1-c1nc2c(CC)n(CCN3CCOCC3)nc2c(=O)[nH]1
Ratio IC50: 184
//
compound: CCOc1ncc(S(=O)(=O)N2CCN(CC)CC2)cc1-c1nc2c3n(nc2c(=O)[nH]1)CCCC3C (single isomer, unassigned; (-))
Ratio IC50: 55
//
compound: CCc1c2nc(-c3cc(S(=O)(=O)N4CCN(CC)CC4)cnc3OCCOC)[nH]c(=O)c2nn1C(C)C
Ratio IC50: 354
//
compound: CCOc1ncc(S(=O)(=O)N2CCN(CC)CC2)cc1-c1nc2c(CC)n(C3CNC3)nc2c(=O)[nH]1
Ratio IC50: 28
//
compound: CCc1c2nc(-c3cc(S(=O)(=O)N4CCN(CC)CC4)cnc3OCCOC)[nH]c(=O)c2nn1C1CCOCC1
Ratio IC50: 241

---

Quick list: logD per entry.
Test: Lipophilicity, log D of the compound at pH 7.4
Format: physicochemical
Details: buffer

molecule: CCCCOc1ncc(S(=O)(=O)N2CCN(CC)CC2)cc1-c1nc2c(CC)n(C3CN(C)C3)nc2c(=O)[nH]1
logD: 2.8

molecule: CCOc1ncc(S(=O)(=O)N2CCN(CC)CC2)cc1-c1nc2c(CC)n(CCN3CCOCC3)nc2c(=O)[nH]1
logD: 1.6

molecule: CCCCOc1ncc(S(=O)(=O)N2CCN(CC)CC2)cc1-c1nc2c(CC)n(CCN(C)C)nc2c(=O)[nH]1
logD: 3

molecule: CCN1CCN(S(=O)(=O)c2cnc(OCCOC)c(-c3nc4c5n(nc4c(=O)[nH]3)CCCC5C)c2)CC1 (single isomer, unassigned; (-))
logD: 1.6

molecule: CCc1c2nc(-c3cc(S(=O)(=O)N4CCN(CC)CC4)cnc3OCCOC)[nH]c(=O)c2nn1CC(C)C
logD: 2.8

molecule: CCc1c2nc(-c3cc(S(=O)(=O)N4CCN(CC)CC4)cnc3OCCOC)[nH]c(=O)c2nn1CCOC
logD: 1.4

molecule: CCc1c2nc(-c3cc(S(=O)(=O)N4CCN(CC)CC4)cnc3OCCOC)[nH]c(=O)c2nn1CCN1CCOCC1
logD: 1.1

molecule: CCOc1ncc(S(=O)(=O)N2CCN(CC)CC2)cc1-c1nc2c(CC)n(CCOC)nc2c(=O)[nH]1
logD: 2.1

molecule: CCc1c2nc(-c3cc(S(=O)(=O)N4CCN(CC)CC4)cnc3OCC(C)C)[nH]c(=O)c2nn1CCOC
logD: 2.9

molecule: CCc1c2nc(-c3cc(S(=O)(=O)N4CCN(C)CC4)cnc3OCCOC)[nH]c(=O)c2nn1CC(C)C
logD: 2.3

---

Experiment: Oral bioavailability in rat at 2 mg/kg
Assay type: ADME, organism-based
Conditions: in vivo

smiles_code: CCOc1ncc(S(=O)(=O)N2CCN(CC)CC2)cc1-c1nc2c(CC)n(CCOC)nc2c(=O)[nH]1
bioavailability, %: 61

---

Species on record: Homo sapiens
Assay: Selectivity ratio of IC50 for PDE6 to IC50 for human PDE5
experimental_readout: Ratio IC50

compound: CCc1c2nc(-c3cc(S(=O)(=O)N4CCN(CC)CC4)cnc3OCCOC)[nH]c(=O)c2nn1CC(C)C
measured_number: 331
//
compound: CCc1c2nc(-c3cc(S(=O)(=O)N4CCN(CC)CC4)cnc3OCCOC)[nH]c(=O)c2nn1C1CCC1
measured_number: 219
//
compound: CCOc1ncc(S(=O)(=O)N2CCN(CC)CC2)cc1-c1nc2c3n(nc2c(=O)[nH]1)CCCC3C (single isomer, unassigned; (+))
measured_number: 125
//
compound: CCc1c2nc(-c3cc(S(=O)(=O)N4CCN(CC)CC4)cnc3OCC(C)C)[nH]c(=O)c2nn1CCOC
measured_number: 204
//
compound: CCN1CCN(S(=O)(=O)c2cnc(OCCOC)c(-c3nc4c5n(nc4c(=O)[nH]3)CCCC5C)c2)CC1 (single isomer, unassigned; (+))
measured_number: 149
//
compound: CCc1c2nc(-c3cc(S(=O)(=O)N4CCN(CC)CC4)cnc3OCCOC)[nH]c(=O)c2nn1CCOC
measured_number: 306
//
compound: CCCn1nc2c(=O)[nH]c(-c3cc(S(=O)(=O)N4CCN(CC)CC4)cnc3OCCOC)nc2c1CC
measured_number: 170
//
compound: CCCn1nc2c(=O)[nH]c(-c3cc(S(=O)(=O)N4CCN(C)CC4)cnc3OCCOC)nc2c1CC
measured_number: 165

---

Assay: Half life in human liver microsomes
Type: ADME, Microsome
experimental_readout: log10 half-life (log10 of the value in min)

compound: CCOc1ncc(S(=O)(=O)N2CCN(CC)CC2)cc1-c1nc2c(CC)n(CCN3CCOCC3)nc2c(=O)[nH]1
log10 half-life: 1.26
--
compound: CCCCOc1ncc(S(=O)(=O)N2CCN(CC)CC2)cc1-c1nc2c(CC)n(C3CN(C)C3)nc2c(=O)[nH]1
log10 half-life: 1.87
--
compound: CCc1c2nc(-c3cc(S(=O)(=O)N4CCN(CC)CC4)cnc3OCCOC)[nH]c(=O)c2nn1CCN1CCOCC1
log10 half-life: 1.68
--
compound: CCc1c2nc(-c3cc(S(=O)(=O)N4CCN(CC)CC4)cnc3OCCOC)[nH]c(=O)c2nn1CCOC
log10 half-life: 1.85
--
compound: CCc1c2nc(-c3cc(S(=O)(=O)N4CCN(CC)CC4)cnc3OCC(C)C)[nH]c(=O)c2nn1CCOC
log10 half-life: 0.85
--
compound: CCN1CCN(S(=O)(=O)c2cnc(OCCOC)c(-c3nc4c5n(nc4c(=O)[nH]3)CCCC5C)c2)CC1 (single isomer, unassigned; (-))
log10 half-life: 1.05
--
compound: CCOc1ncc(S(=O)(=O)N2CCN(CC)CC2)cc1-c1nc2c(CC)n(CCOC)nc2c(=O)[nH]1
log10 half-life: 1.45
--
compound: CCc1c2nc(-c3cc(S(=O)(=O)N4CCN(C)CC4)cnc3OCCOC)[nH]c(=O)c2nn1CC(C)C
log10 half-life: 1.45
--
compound: CCc1c2nc(-c3cc(S(=O)(=O)N4CCN(CC)CC4)cnc3OCCOC)[nH]c(=O)c2nn1CC(C)C
log10 half-life: 1.04
